Measured values drawn from patent US20140099354A1 for this set.

Answer each item with its documented mitochondrial NAD+ content.
Tested on: Cardiac muscle cells derived from neonatal rat heart
Experiment: Hypoxia of cardiac muscle cells (viability, mitochondrial NAD+)
Type: cell-based
Details: hypoxia, second printed value; baseline 5
Answers are plain numbers, in nmol/mg protein.

Answered examples (3):
# compound, measured-quantity, units-text, numeric-result
data = [
    ("CCCCCCCC/C=C(\\CCCCCCCC(=O)O[C@H](COC(=O)CCCCCCCCCCCCCCCCC)COP(=O)([O-])OCC[N+](C)(C)C)[N+](=O)[O-]", "mitochondrial NAD+ content", "nmol/mg protein", 3.3),
    ("CCCCC/C=C\\C/C=C\\CCCCCCCC(=O)O[C@H](COC(=O)CCCCCCCCCCCCCCC)COP(=O)([O-])OCC[N+](C)(C)C [PLPC, 1-Palmitoyl-2-linoleoyl-sn-glycero-3-PC, reference compound]", "mitochondrial NAD+ content", "nmol/mg protein", 0.7),
    ("CCCCC/C=C\\CC=C(CCCCCCCC(=O)O[C@H](COC(=O)CCCCCCCCCCCCCCC)COP(=O)([O-])OCC[N+](C)(C)C)[N+](=O)[O-]", "mitochondrial NAD+ content", "nmol/mg protein", 3.1),
]

Exercise: # query: mitochondrial NAD+ content of entry CCCCCCCC/C=C\CCCCCCCC(=O)O[C@H](COC(=O)CCCCCCCCCCCCCCCCC)COP(=O)([O-])OCC[N+](C)(C)C [SOPC, 1-Stearoyl-2-oleoyl-sn-glycero-3-PC, reference compound]
Key: 1.1
